Data credit: paper PMC7076352

test_method_notes: in vivo
Set-up: species or system Sprague-Dawley (SD) rats
condition: Sprague-Dawley, plasma; 8 h after oral CNP, rat
measure_name: concentration at 8 h (ng/mL)

| compound | experimental_result |
| --- | --- |
| CC(C)=CCC[C@](C)(O[C@@H]1O[C@H](CO)[C@@H](O)[C@H](O)[C@H]1O)[C@H]1CC[C@]2(C)[C@@H]1[C@H](O)C[C@@H]1[C@@]3(C)CC[C@H](O[C@@H]4O[C@H](CO)[C@@H](O)[C@H](O)[C@H]4O[C@@H]4O[C@H](CO)[C@@H](O)[C@H](O)[C@H]4O)C(C)(C)[C@@H]3CC[C@]12C [GRd, ginsenoside Rd] | 15.6 |
| CC(C)=CCC[C@](C)(O[C@@H]1O[C@H](CO)[C@@H](O)[C@H](O)[C@H]1O)[C@H]1CC[C@]2(C)[C@@H]1[C@H](O)C[C@@H]1[C@@]3(C)CC[C@H](O)C(C)(C)[C@@H]3[C@@H](O[C@@H]3O[C@H](CO)[C@@H](O)[C@H](O)[C@H]3O)C[C@]12C [GRg1, ginsenoside Rg1] | 0.65 |
| CC(C)=CCC[C@](C)(O[C@@H]1O[C@H](CO)[C@@H](O)[C@H](O)[C@H]1O)[C@H]1CC[C@]2(C)[C@@H]1[C@H](O)C[C@@H]1[C@@]3(C)CC[C@H](O)C(C)(C)[C@@H]3[C@@H](O[C@@H]3O[C@H](CO)[C@@H](O)[C@H](O)[C@H]3O[C@@H]3OC[C@@H](O)[C@H](O)[C@H]3O)C[C@]12C [NGR1, notoginsenoside R1] | 0.46 |
| CC(C)=CCC[C@](C)(O[C@@H]1O[C@H](CO[C@@H]2O[C@H](CO)[C@@H](O)[C@H](O)[C@H]2O)[C@@H](O)[C@H](O)[C@H]1O)[C@H]1CC[C@]2(C)[C@@H]1[C@H](O)C[C@@H]1[C@@]3(C)CC[C@H](O[C@@H]4O[C@H](CO)[C@@H](O)[C@H](O)[C@H]4O[C@@H]4O[C@H](CO)[C@@H](O)[C@H](O)[C@H]4O)C(C)(C)[C@@H]3CC[C@]12C [GRb1, ginsenoside Rb1] | 80 |

----------
test_method_notes: in vivo
Parameters: species or system Sprague-Dawley (SD) rats
condition: Sprague-Dawley, rat, plasma, po, 60 mg·kg^−1
Experimental: At each time, 0.5 mL of blood was collected in the heparin sodium tubes. Plasma was separated by centrifugation at 4000 rpm for 10 min and stored below −80 °C until bioanalysis. Oasis PRiME HLB SPE cartridges (1 cc/30 mg, Waters, Milford, MA, USA) were used to process the plasma samples (Supplementary Materials). […]
measure_name: concentration at 4 h (ng/mL)

| molecule | measure_name | uom | experimental_result |
| --- | --- | --- | --- |
| CC(C)=CCC[C@](C)(O[C@@H]1O[C@H](CO)[C@@H](O)[C@H](O)[C@H]1O)[C@H]1CC[C@]2(C)[C@@H]1[C@H](O)C[C@@H]1[C@@]3(C)CC[C@H](O[C@@H]4O[C@H](CO)[C@@H](O)[C@H](O)[C@H]4O[C@@H]4O[C@H](CO)[C@@H](O)[C@H](O)[C@H]4O)C(C)(C)[C@@H]3CC[C@]12C [GRd, ginsenoside Rd] | concentration at 4 h | ng/mL | 23.9 |
| CC(C)=CCC[C@](C)(O[C@@H]1O[C@H](CO)[C@@H](O)[C@H](O)[C@H]1O)[C@H]1CC[C@]2(C)[C@@H]1[C@H](O)C[C@@H]1[C@@]3(C)CC[C@H](O)C(C)(C)[C@@H]3[C@@H](O[C@@H]3O[C@H](CO)[C@@H](O)[C@H](O)[C@H]3O[C@@H]3O[C@@H](C)[C@H](O)[C@@H](O)[C@H]3O)C[C@]12C [GRe, ginsenoside Re] | concentration at 4 h | ng/mL | 0.25 |
